Test: toxicity (LD50) measured on mice by peroral administration
Conditions: mouse, in vivo, po
Catalogue of LD50 readings, one per entry.
// return numeric value only (unit: mg/kg, not printed)

The cases that follow already have their LD50 on record.
molecule	readout.units	LD50
CCOC(=O)C1=C(C)N(C)C(C)=C(C(=O)OC(C)C)C1c1cccc([N+](=O)[O-])c1 (stereo not drawn)	mg/kg	3000
CCOC(=O)C1=C(C)N(C)C(C)=C(C(=O)OC)C1c1cccc([N+](=O)[O-])c1 (stereo not drawn)	mg/kg	3000

We next turn to a different molecule, shown below.
Notebook: COC(=O)C1=C(C)N(C)C(C)=C(C(=O)OC(C)C)C1c1cccc([N+](=O)[O-])c1 (stereo not drawn) , LD50 read as 3000
